# ASSAYED SYSTEM: E. coli GroEL/ES (Escherichia coli, UniProt P0A6F5)
# Construct: made in house; host or cells: GroEL in E. coli DH5α; GroES in E. coli BL21 (DE3)
# Sequence (P0A6F5 2-548): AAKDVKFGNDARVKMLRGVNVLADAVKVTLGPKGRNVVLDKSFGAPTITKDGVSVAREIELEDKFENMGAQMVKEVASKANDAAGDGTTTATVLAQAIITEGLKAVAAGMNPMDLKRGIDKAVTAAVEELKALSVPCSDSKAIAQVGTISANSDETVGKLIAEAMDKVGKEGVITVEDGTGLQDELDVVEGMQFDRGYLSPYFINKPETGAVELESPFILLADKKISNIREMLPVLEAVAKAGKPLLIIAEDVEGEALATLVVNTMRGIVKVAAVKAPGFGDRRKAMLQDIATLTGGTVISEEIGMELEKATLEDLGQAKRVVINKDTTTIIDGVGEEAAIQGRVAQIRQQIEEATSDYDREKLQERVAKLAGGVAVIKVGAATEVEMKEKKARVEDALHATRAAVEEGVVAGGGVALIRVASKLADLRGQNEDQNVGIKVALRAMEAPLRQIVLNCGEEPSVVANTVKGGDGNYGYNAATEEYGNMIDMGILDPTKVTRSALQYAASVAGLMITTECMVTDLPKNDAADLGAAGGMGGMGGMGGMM
# TEST DETAILS: GroEL/ES-mediated dRho refolding assay
# Format: biochemical
# PROTOCOL CONDITIONS: read-out: Biochemical Assay IC50 GroEL/ES-dRho Refolding
So basically, if IC50 comes in under 30 µM it's Fulfilled, and if it's 30 µM or more it's Not fulfilled.

[[record]]
compound = "O=C(Nc1cccc(Cl)c1)c1cc(Br)cc(Br)c1O"
group = "Not fulfilled"

[[record]]
compound = "Cc1cc(C(C#N)c2ccc(Cl)cc2)c(Cl)cc1NC(=O)c1cc(I)cc(I)c1O (stereo not shown) [Closantel, closantel, reference compound]"
group = "Fulfilled"

[[record]]
compound = "O=C(Nc1ccc(Sc2nc3ccccc3s2)cc1)c1cccc(Br)c1O"
group = "Fulfilled"

[[record]]
compound = "CC1(C)S[C@@H]2[C@H](NC(=O)[C@H](N)c3ccccc3)C(=O)N2[C@H]1C(=O)O [Ampicillin, ampicillin, reference compound]"
group = "Not fulfilled"

[[record]]
compound = "O=C(Nc1ccc(Sc2nc3ccccc3s2)c(Cl)c1)c1ccccc1O"
group = "Not fulfilled"

[[record]]
compound = "O=C(Nc1ccc(Sc2nc3ccccc3s2)c(Cl)c1)c1cc(Br)ccc1O"
group = "Fulfilled"

[[record]]
compound = "O=C(Nc1ccc(Sc2nc3ccccc3s2)c(Cl)c1)c1cccc(Br)c1O"
group = "Fulfilled"

[[record]]
compound = "O=C(Nc1ccc(Sc2nc3ccccc3s2)cc1)c1cc(Br)cc(Br)c1O"
group = "Fulfilled"

[[record]]
compound = "O=C(Nc1ccc(Sc2nc3ccccc3s2)cc1)c1ccccc1O"
group = "Not fulfilled"

[[record]]
compound = "O=C(Nc1ccccc1)c1ccccc1O [Compound 16, 2-Hydroxy-N-phenylbenzamide]"
group = "Not fulfilled"

[[record]]
compound = "O=C(Nc1ccc(Oc2ccc(Cl)cc2)c(Cl)c1)c1cc(I)cc(I)c1O [Rafoxanide, rafoxanide, reference compound]"
group = "Fulfilled"

[[record]]
compound = "O=C(Nc1ccc(Sc2nc3ccccc3s2)c(Cl)c1)c1cc(Br)cc(Br)c1O"
group = "Fulfilled"


====

# ASSAYED SYSTEM: E. coli GroEL/ES (Escherichia coli)
# Construct: made in house; host or cells: GroEL in E. coli DH5α; GroES in E. coli BL21 (DE3)
# TEST DETAILS: GroEL/ES-mediated dRho refolding assay
# Type: biochemical
# PROTOCOL CONDITIONS: log of IC50 (μM scale), with standard deviation
RECORDED ENDPOINT: log(IC50) GroEL/ES-dRho Refolding

[[record]]
molecule = "O=C(Nc1cccc(Cl)c1)c1cc(Br)cc(Br)c1O [Compound 9]"
assayed_system = "E. coli GroEL/ES (Escherichia coli)"
result = "1.67 ± 0.04"

[[record]]
molecule = "O=C(Nc1ccccc1)c1cc(Br)ccc1O [Compound 15, 5-Bromo-2-hydroxy-N-phenylbenzamide]"
assayed_system = "E. coli GroEL/ES (Escherichia coli)"
result = ">2"

[[record]]
molecule = "COc1ccccc1C(=O)Nc1cccc(Cl)c1 [Compound 40, N-(3-Chlorophenyl)-2-methoxybenzamide]"
assayed_system = "E. coli GroEL/ES (Escherichia coli)"
result = ">2"

[[record]]
molecule = "O=C(Nc1ccccc1)c1cccc(Br)c1 [Compound 27, 3-Bromo-N-phenylbenzamide]"
assayed_system = "E. coli GroEL/ES (Escherichia coli)"
result = ">2"

[[record]]
molecule = "O=C(Nc1ccc(Sc2nc3ccccc3s2)c(Cl)c1)c1cc(Br)ccc1O [Compound 3]"
assayed_system = "E. coli GroEL/ES (Escherichia coli)"
result = "1.04 ± 0.38"

[[record]]
molecule = "COc1ccccc1C(=O)Nc1ccccc1 [Compound 44, 2-Methoxy-N-phenylbenzamide]"
assayed_system = "E. coli GroEL/ES (Escherichia coli)"
result = ">2"

[[record]]
molecule = "O=C(Nc1cccc(Cl)c1)c1cc(Br)ccc1O [Compound 11]"
assayed_system = "E. coli GroEL/ES (Escherichia coli)"
result = ">2"

[[record]]
molecule = "O=C(Nc1ccccc1)c1cccc(Br)c1O [Compound 14, 3-Bromo-2-hydroxy-N-phenylbenzamide]"
assayed_system = "E. coli GroEL/ES (Escherichia coli)"
result = ">2"

[[record]]
molecule = "CC1(C)S[C@@H]2[C@H](NC(=O)[C@H](N)c3ccccc3)C(=O)N2[C@H]1C(=O)O [Ampicillin, ampicillin, reference compound]"
assayed_system = "E. coli GroEL/ES (Escherichia coli)"
result = ">2"

[[record]]
molecule = "O=C(Nc1cccc(Cl)c1)c1cccc(Br)c1 [Compound 24, 3-Bromo-N-(3-chlorophenyl)benzamide]"
assayed_system = "E. coli GroEL/ES (Escherichia coli)"
result = ">2"

[[record]]
molecule = "COc1c(Br)cccc1C(=O)Nc1ccccc1 [Compound 42, 3-Bromo-2-methoxy-N-phenylbenzamide]"
assayed_system = "E. coli GroEL/ES (Escherichia coli)"
result = ">2"

[[record]]
molecule = "O=C(Nc1cccc(Cl)c1)c1ccccc1 [Compound 25, N-(3-Chlorophenyl)benzamide]"
assayed_system = "E. coli GroEL/ES (Escherichia coli)"
result = ">2"

[[record]]
molecule = "O=C(Nc1ccccc1)c1cc(Br)cc(Br)c1 [Compound 26, 3,5-Dibromo-N-phenylbenzamide]"
assayed_system = "E. coli GroEL/ES (Escherichia coli)"
result = ">2"

[[record]]
molecule = "O=C(Nc1ccccc1)c1cc(Br)cc(Br)c1O [Compound 13, 3,5-Dibromo-2-hydroxy-N-phenylbenzamide]"
assayed_system = "E. coli GroEL/ES (Escherichia coli)"
result = ">2"

[[record]]
molecule = "O=C(Nc1cccc(Cl)c1)c1cc(Br)cc(Br)c1 [Compound 23, 3,5-Dibromo-N-(3-chlorophenyl)benzamide]"
assayed_system = "E. coli GroEL/ES (Escherichia coli)"
result = ">2"

[[record]]
molecule = "O=C(Nc1ccc(Sc2nc3ccccc3s2)c(Cl)c1)c1cccc(Br)c1O [Compound 2]"
assayed_system = "E. coli GroEL/ES (Escherichia coli)"
result = "0.58 ± 0.15"

[[record]]
molecule = "O=C(Nc1ccc(Oc2ccc(Cl)cc2)c(Cl)c1)c1cc(I)cc(I)c1O [Rafoxanide, rafoxanide, reference compound]"
assayed_system = "E. coli GroEL/ES (Escherichia coli)"
result = "0.34 ± 0.11"

[[record]]
molecule = "COc1c(Br)cc(Br)cc1C(=O)Nc1ccccc1 [Compound 41, 3,5-Dibromo-2-methoxy-N-phenylbenzamide]"
assayed_system = "E. coli GroEL/ES (Escherichia coli)"
result = ">2"

[[record]]
molecule = "O=C(Nc1ccc(Sc2nc3ccccc3s2)cc1)c1ccccc1O [Compound 8]"
assayed_system = "E. coli GroEL/ES (Escherichia coli)"
result = "1.94 ± 0.23"

[[record]]
molecule = "O=C(Nc1ccccc1)c1ccccc1O [Compound 16, 2-Hydroxy-N-phenylbenzamide]"
assayed_system = "E. coli GroEL/ES (Escherichia coli)"
result = ">2"

[[record]]
molecule = "COc1ccc(Br)cc1C(=O)Nc1cccc(Cl)c1 [Compound 39]"
assayed_system = "E. coli GroEL/ES (Escherichia coli)"
result = ">2"


====

# ASSAYED SYSTEM: human HSP60/10 (Homo sapiens, UniProt P10809)
# Construct: octa-Histidine tag (TEV-cleavable) (N, cleaved yes); made in house; host or cells: HSP60 in E. coli Rosetta 2 (DE3); HSP10 in Rosetta 2 (DE3) pLysS
# Sequence (P10809 27-573): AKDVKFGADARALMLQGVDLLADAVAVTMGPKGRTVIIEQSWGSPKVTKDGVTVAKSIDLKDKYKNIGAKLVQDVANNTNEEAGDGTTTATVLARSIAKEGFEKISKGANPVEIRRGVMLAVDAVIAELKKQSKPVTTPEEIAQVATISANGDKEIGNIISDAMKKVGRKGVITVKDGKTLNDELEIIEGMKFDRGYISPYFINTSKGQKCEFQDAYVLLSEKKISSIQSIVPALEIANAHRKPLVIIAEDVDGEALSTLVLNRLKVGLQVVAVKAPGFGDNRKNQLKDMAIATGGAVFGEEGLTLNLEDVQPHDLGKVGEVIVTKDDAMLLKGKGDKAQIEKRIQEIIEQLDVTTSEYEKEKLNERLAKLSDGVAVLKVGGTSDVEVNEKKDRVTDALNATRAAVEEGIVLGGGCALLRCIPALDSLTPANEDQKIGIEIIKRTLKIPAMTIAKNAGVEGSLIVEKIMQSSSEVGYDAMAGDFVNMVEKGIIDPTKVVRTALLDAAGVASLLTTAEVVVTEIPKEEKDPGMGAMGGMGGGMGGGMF
# TEST DETAILS: HSP60/10-mediated dMDH refolding assay
# Assay type: biochemical
# PROTOCOL CONDITIONS: human HSP60/10-dMDH refolding assay; read-out: HSP60/10-dMDH Refolding IC50
# Experimental: Reagent preparation: For these assays, four primary reagent stocks were prepared: 1) GroEUES-dMDH or HSP60/10-dMDH binary complex stock; 2) ATP initiation stock; 3) EDTA quench stock; 4) MDH enzymatic assay stock. Denatured MDH (dMDH) was prepared by 2-fold dilution of MDH (5 mg/ml, soluble pig heart MDH from Roche, product #10127248001) with denaturant buffer (7 M guanidine-HCl, 200 mM Tris, pH 7.4, and 50 mM DTT). MDH was completely denatured by incubating at room temperature for 45 min. […]
RECORDED ENDPOINT: IC50

[[record]]
molecule = "O=C(Nc1ccccc1)c1cc(Br)cc(Br)c1O [Compound 13, 3,5-Dibromo-2-hydroxy-N-phenylbenzamide]"
result = "63 µM"

[[record]]
molecule = "O=C(Nc1ccc(Sc2nc3ccccc3s2)cc1)c1ccccc1 [Compound 22]"
result = "> 100 µM"

[[record]]
molecule = "COc1c(Br)cc(Br)cc1C(=O)Nc1ccc(Sc2nc3ccccc3s2)cc1 [Compound 33]"
result = "> 100 µM"

[[record]]
molecule = "COc1c(Br)cc(Br)cc1C(=O)Nc1cccc(Cl)c1 [Compound 37]"
result = "> 100 µM"

